TARGET: NIT1 (NITRILASE1) (Arabidopsis thaliana, UniProt P32961)
Construct: recombinant, 6xHis-tagged, expressed in Escherichia coli, (NH4)2SO4 precipitation, Ni-NTA and PD-10 purified; tag cleavage not mentioned
Sequence (P32961 2-346): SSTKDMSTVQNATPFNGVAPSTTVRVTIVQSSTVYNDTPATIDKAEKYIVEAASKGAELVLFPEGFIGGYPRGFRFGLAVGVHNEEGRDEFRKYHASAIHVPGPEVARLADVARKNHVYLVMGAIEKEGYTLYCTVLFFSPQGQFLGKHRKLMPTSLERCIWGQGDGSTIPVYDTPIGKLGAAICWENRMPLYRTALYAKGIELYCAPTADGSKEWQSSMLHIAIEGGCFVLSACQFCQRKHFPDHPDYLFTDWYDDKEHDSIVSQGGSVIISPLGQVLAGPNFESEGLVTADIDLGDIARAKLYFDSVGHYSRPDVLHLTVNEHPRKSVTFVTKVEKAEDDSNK
ASSAY PROTOCOL: Berthelot colorimetric ammonia assay; IC50 by linear-regression interpolation
READOUT KIND: IC50

// query # query: IC50 of entry CC(Nc1cccc2ccccc12)C(=O)NN=Cc1c(O)ccc2ccccc12 (stereo not shown)
// result ~20.7 µM
